system.name: human MAGL (Homo sapiens)
Construct: recombinant MAGL enzyme (aa 2-303 RBC, internal preparation)
Sequence (Q99685 2-303): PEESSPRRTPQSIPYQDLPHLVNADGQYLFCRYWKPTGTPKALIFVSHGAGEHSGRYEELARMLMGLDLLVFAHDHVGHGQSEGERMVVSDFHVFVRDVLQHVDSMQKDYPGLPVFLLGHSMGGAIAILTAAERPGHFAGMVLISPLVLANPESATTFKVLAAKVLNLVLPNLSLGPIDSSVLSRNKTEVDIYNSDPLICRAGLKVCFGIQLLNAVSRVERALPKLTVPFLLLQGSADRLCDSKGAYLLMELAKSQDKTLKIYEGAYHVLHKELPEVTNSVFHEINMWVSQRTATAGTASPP
assay.overview: MAGL inhibition potency (IC50) with 4NPA substrate, Example 20, methods of Table C
Format: biochemical
run.conditions: Method 4: MAGL (15 nM) Cayman Chemical Enzyme
pIC50: −log10 of the molar value.
test.readout: pIC50

Supply pIC50 measured with human MAGL (Homo sapiens) for CCOc1cc(F)ccc1C(=O)N1CC2(CC(C(=O)N(C)c3cccnc3C)C2)C1 .
< 5.00

* * *

system.name: human recombinant FAAH (Homo sapiens)
Construct: purchased Cayman kit Item No. 10005196; FAAH enzyme 700302
Sequence (O00519 whole entry): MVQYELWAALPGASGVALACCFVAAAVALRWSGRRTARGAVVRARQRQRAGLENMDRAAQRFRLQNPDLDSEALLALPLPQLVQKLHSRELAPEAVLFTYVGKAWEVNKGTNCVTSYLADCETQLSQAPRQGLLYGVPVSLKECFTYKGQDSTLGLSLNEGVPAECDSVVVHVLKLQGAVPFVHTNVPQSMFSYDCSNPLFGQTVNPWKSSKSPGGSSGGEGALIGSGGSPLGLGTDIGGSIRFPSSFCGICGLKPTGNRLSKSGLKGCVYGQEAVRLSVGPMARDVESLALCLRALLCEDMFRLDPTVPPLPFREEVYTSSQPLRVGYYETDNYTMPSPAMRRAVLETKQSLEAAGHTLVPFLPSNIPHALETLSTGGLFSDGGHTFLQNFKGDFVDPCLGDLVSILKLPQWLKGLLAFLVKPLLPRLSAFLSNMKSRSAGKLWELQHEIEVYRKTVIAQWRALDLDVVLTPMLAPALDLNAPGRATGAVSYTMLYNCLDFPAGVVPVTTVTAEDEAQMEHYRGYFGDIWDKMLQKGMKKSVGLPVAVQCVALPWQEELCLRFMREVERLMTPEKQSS
assay.overview: FAAH counter screen (Cayman FAAH Inhibitor Screening Assay Kit), Example 21
Assay type: biochemical
run.conditions: Method B: starting concentration of 10 μM
pIC50: −log10 of the molar value.
test.readout: pIC50

# return recorded pIC50 for input O=C(c1cc(O)ccc1F)N1CC2(CC(n3cc(C4CC4)c(-c4ccccc4F)n3)C2)C1 [Compound 493]
< 5.00

Reference for the values: patent US20250170101A1
